These entries and their values trace back to patent US20240166765A1.

- measured_target: Relipidated TF (Tissue Factor) (UniProt P13726 33-295, limits assumed)
- test_method_notes: cell-based or functional assay
Item-by-item account of ttPeak [min], Ab 50 nM
property_label: ttPeak [min], Ab 50 nM (min)

binder	measurement_unit	observed_value
TF-011 (antibody, V domains shown) VH: EVQLLESGGGLVQPGGSLRLSCAASGFTFSNYAMSWVRQAPGKGLEWVSSISGSGDYTYYTDSVKGRFTISRDNSKNTLYLQMNSLRAEDTAVYYCARSPWGYYLDSWGQGTLVTVSS VL: DIQMTQSPPSLSASAGDRVTITCRASQGISSRLAWYQQKPEKAPKSLIYAASSLQSGVPSRFSGSGSGTDFTLTISSLQPEDFATYYCQQYNSYPYTFGQGTKLEIK	min	30.3
5G9 (humanized TF8-5G9, CNTO 860) (antibody, V domains shown) VH: QVQLVESGGGVVQPGRSLRLSCKASGFNIKDYYMHWVRQAPGKGLEWIGLIDPENGNTIYDPKFQGRFTISADNSKNTLFLQMDSLRPEDTAVYYCARDNSYYFDYWGQGTPVTVSS VL: DIQMTQSPSSLSASVGDRVTITCKASQDIRKYLNWYQQKPGKAPKLLIYYATSLADGVPSRFSGSGSGTDYTFTISSLQPEDIATYYCLQHGESPYTFGQGTKLEIT	min	34.6
39A (antibody, human IgG1, V domains shown) VH: QVQLVQSGAEVKKPGSSVKVSCKASGGTFSSNAIGWVRQAPGQGLEWMGSIIPIIGFANYAQKFQGRVTITADESTSTAYMELSSLRSEDTAVYYCARDSGYYYGASSFGMDVWGQGTTVTVSS VL: EIVMTQSPATLSVSPGERATLSCRASQSVSSNLAWYQQKPGQAPRLLIYGASTRATGIPARFSGSGSGTEFTLTISSLQSEDFAVYYCEQYNNLPLTFGGGTKVEIK	min	39.3
25A (antibody, human IgG1, V domains shown) VH: QVQLVQSGAEVKKPGASVKVSCKASGYTFDVYGISWVRQAPGQGLEWMGWIAPYNGNTNYAQKLQGRVTMTTDTSTSTAYMELRSLRSDDTAVYYCARDAGTYSPFGYGMDVWGQGTTVTVSS VL: DIQMTQSPSTLSASVGDRVTITCRASQSISSWLAWYQQKPGKAPKLLIYKASSLESGVPSRFSGSGSGTEFTLTISSLQPDDFATYYCQQFQSLPPFTFGGGTKVEIK	min	8.6
